B1: SASS6 (parent)
chain: QKELQDVGQSLRIKEQEVCKLQEQ

Variants of: B1
procedureSummary: protein stability index of a GFP-peptide fusion (GPS, HEK-293T) (PSI 1-6); higher = more stable;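 also: lentivirally expressed fusions sorted by FACS into six bins by GFP to DsRed ratio, PSI derived from sequencing read proportions per bin multiplied by bin number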
runConditions: c terminus: a fixed tail appended
So I've got a bunch of variants here, and I need their protein stability index values.
One number for each entry.

| itemSequence | protein stability index |
| --- | --- |
| QKELQMVGQSLRIKEQEVCKLQEQ [D6M] | 5.02 |

Working through the 3 variants below one at a time, give protein stability index for each.
1. QKELQDVTQSLRIKEQEVCKLQEQ [G8T]
2. QKELQDVGQSLRIKEQEVKKLQEQ [C19K]
3. QKELVDVGQSLRIKEQEVCKLQEQ [Q5V]

Given back:
1: 5.13; 2: 4.88; 3: 5.13
